Assay: Plasma levels of IVA, TEZ and ELX by LC-MS/MS in pediatric cystic fibrosis patients at steady state on Kaftrio
Format: in vivo, human
Details: both sexes, human, plasma, oral, n = 25 pediatric CF patients, steady state, 4 h after morning Kaftrio dose; read-out: Plasma concentration T4 (Cmax), 25th Percentile
Exercise: state measured Cmax at 4 h for each of the compounds provided.
Numbers only, in ng/mL.

Consider the following illustrative entries.
compound: Cc1nn(C)cc1S(=O)(=O)NC(=O)c1ccc(-n2ccc(OCC(C)(C)C(F)(F)F)n2)nc1N1C[C@@H](C)CC1(C)C [ELX, Elexacaftor]
units-symbol: ng/mL
Cmax at 4 h: 13300

compound: CC(C)(CO)c1cc2cc(NC(=O)C3(c4ccc5c(c4)OC(F)(F)O5)CC3)c(F)cc2n1C[C@@H](O)CO [TEZ, Tezacaftor]
units-symbol: ng/mL
Cmax at 4 h: 3750

With those in mind, consider the next compound.
Input line: Dear colleague, I am looking for the recorded Cmax at 4 h of the following compound: CC(C)(C)c1cc(C(C)(C)C)c(NC(=O)c2c[nH]c3ccccc3c2=O)cc1O [IVA, Ivacaftor]
Output line: 1070
